Test: Pharmacokinetic evaluation in rats
Format: in vivo, rat
Conditions: rat, p.o. 10 mg/kg
Hi there, I'd appreciate the recorded F for every entry that follows.
One number for each entry, in %.

MOLECULE: CCC(=O)c1cnc(NC(=O)C2CC2)cc1Nc1cccc(-c2cc(P(=O)(C3CC3)C3CC3)n(C)n2)c1OC [Compound B37]
READOUT UNIT: %
F: 61

I have 3 molecules here; please give me F for each one.
1. [2H]C([2H])([2H])NC(=O)c1nnc(NC(=O)C2CC2)cc1Nc1cccc(-c2cc(P(=O)(C3CC3)C3CC3)n(C)n2)c1OC [Compound B41]
2. CCC(=O)c1cnc(NC(=O)C2CC2)cc1Nc1cccc(-c2cc(P(C)(C)=O)n(C)n2)c1OC [Compound B2]
3. [2H]C([2H])([2H])n1nc(-c2cccc(Nc3cc(NC(=O)C4CC4)ncc3C(=O)CC)c2OC)cc1P(C)(C)=O [Compound B22]

1: 48; 2: 49; 3: 17

* * *

Test: Plasma protein binding test, rat
Assay type: in vitro ADME
EXPERIMENTAL ENDPOINT: fraction unbound at 4 h, 2 μM

MOLECULE: [2H]C([2H])([2H])NC(=O)c1nnc(NC(=O)C2CC2)cc1Nc1cccc(-c2cc(P(=O)(C3CC3)C3CC3)n(C)n2)c1OC
fraction unbound at 4 h, 2 μM: 0.045

Please examine the following record next.
Notebook: CCC(=O)c1cnc(NC(=O)C2CC2)cc1Nc1cccc(-c2cc(P(C)(C)=O)n(C)n2)c1OC , fraction unbound at 4 h, 2 μM read as 0.055

* * *

Target: TYK2 (Mus musculus (Mouse))
Experiment: Luciferase assay in L929 ISRE cells stimulated with IFN-α
Format: cell-based
Conditions: 1000 nM, IFN-α 100 ng/mL, read-out: Inhibitory activity % (1000 nM)
EXPERIMENTAL ENDPOINT: inhibition at 1 µM (%)
Give bare numbers, in %.

MOLECULE: CCC(=O)c1cnc(NC(=O)C2CC2)cc1Nc1cccc(-c2ccccc2P(C)(C)=O)c1OC
TARGET UNDER TEST: TYK2 (Mus musculus (Mouse))
inhibition at 1 µM [%]: 50

Could you report inhibition at 1 µM for every entry in the following list?
1. CCP(=O)(CC)c1cc(-c2cccc(Nc3cc(NC(=O)C4CC4)nnc3C(=O)NC)c2OC)nn1C
2. CCC(=O)c1cnc(NC(=O)C2CC2)cc1Nc1cccc(-c2cc(P(C)(C)=O)n(C)n2)c1OC
3. CCC(=O)c1cnc(NC(=O)C2CC2)cc1Nc1cccc(-c2cc(P(C)(C)=O)cs2)c1OC

84
94
38

* * *

Test: Pharmacokinetic evaluation in rats
Format: in vivo, rat
Conditions: male, plasma, po; rat, p.o. 10 mg/kg
EXPERIMENTAL ENDPOINT: AUC
# number then unit; no other words

MOLECULE: CCC(=O)c1cnc(NC(=O)C2CC2)cc1Nc1cccc(-c2cc(P(C)(C)=O)n(C)n2)c1OC
AUC: 5900 ng·h/mL

MOLECULE: CCC(=O)c1cnc(NC(=O)C2CC2)cc1Nc1cccc(-c2cc(P(=O)(C3CC3)C3CC3)n(C)n2)c1OC
AUC: 9420 ng·h/mL

Moving on to the next compound.
Field AUC (entry [2H]C([2H])([2H])n1nc(-c2cccc(Nc3cc(NC(=O)C4CC4)ncc3C(=O)CC)c2OC)cc1P(C)(C)=O ) reads 2280 ng·h/mL

* * *

Molecular target: TYK2 (Mus musculus (Mouse), UniProt Q9R117)
Sequence (Q9R117 whole entry): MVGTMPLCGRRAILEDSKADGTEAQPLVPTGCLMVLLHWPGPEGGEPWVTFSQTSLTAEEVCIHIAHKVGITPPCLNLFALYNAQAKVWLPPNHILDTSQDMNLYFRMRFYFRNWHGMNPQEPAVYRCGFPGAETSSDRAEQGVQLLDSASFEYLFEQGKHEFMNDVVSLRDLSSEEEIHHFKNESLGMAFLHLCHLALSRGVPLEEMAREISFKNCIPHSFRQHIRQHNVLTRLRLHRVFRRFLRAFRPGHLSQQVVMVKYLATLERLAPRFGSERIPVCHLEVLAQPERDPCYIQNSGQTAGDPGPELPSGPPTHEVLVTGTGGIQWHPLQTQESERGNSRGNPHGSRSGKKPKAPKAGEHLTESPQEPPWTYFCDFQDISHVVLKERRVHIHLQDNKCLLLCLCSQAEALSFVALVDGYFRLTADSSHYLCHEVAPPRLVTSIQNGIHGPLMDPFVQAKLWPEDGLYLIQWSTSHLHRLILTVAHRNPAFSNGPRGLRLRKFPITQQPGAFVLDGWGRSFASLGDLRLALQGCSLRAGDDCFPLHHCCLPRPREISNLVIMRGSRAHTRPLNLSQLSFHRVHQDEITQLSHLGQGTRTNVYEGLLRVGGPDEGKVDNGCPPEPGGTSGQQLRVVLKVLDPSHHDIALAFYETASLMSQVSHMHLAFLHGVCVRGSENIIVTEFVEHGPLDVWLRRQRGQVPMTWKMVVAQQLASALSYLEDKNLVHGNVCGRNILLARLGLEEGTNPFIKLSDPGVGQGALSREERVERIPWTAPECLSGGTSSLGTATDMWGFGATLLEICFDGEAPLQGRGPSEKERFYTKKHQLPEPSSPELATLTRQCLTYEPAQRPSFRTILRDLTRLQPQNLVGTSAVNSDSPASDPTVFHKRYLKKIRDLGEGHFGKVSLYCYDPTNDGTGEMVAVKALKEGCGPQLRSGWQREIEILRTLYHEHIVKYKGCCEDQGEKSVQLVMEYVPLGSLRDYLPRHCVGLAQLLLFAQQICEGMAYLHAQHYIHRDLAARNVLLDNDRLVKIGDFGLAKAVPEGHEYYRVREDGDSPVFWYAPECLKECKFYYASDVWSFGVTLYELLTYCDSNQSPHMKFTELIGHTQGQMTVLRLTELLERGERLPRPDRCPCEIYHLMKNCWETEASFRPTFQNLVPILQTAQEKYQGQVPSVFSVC
Experiment: Luciferase assay in L929 ISRE cells stimulated with IFN-α
Type: cell-based
Conditions: 10 nM, IFN-α 100 ng/mL, read-out: Inhibitory activity % (10 nM)
So I've got a bunch of molecules here, and I need their inhibition at 0.01 µM values.
Answers are plain numbers, in %.

MOLECULE: CCC(=O)c1cnc(NC(=O)C2CC2)cc1Nc1cccc(-c2ccc(P(C)(C)=O)cc2)c1OC [Compound B3]
inhibition at 0.01 µM [%]: 21
//
MOLECULE: CCC(=O)c1cnc(NC(=O)C2CC2)cc1Nc1cccc(-c2cc(P(C)(C)=O)n(C3CC3)n2)c1OC [Compound B16]
inhibition at 0.01 µM [%]: 35

# next molecule below
Noted for CCC(=O)c1cnc(NC(=O)C2CC2)cc1Nc1cccc(-c2cc(P(C)(C)=O)n(C)n2)c1OC [Compound B2] : its inhibition at 0.01 µM reads 45
